# target of assay: T1, RBFOX1 RRM RbFoxmut (Fox-RRM*) (Homo sapiens, UniProt Q9NWB1 109-208, R118D;E147R;N151S;E152T)
# T1 sequence: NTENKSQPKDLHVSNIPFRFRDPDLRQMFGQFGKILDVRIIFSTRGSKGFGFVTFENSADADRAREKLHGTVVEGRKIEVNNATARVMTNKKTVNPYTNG
# assay comment: EMSA; HiTS-Eq, 1 nM pool, 10 min; buffer printed only for the single-RNA assays: 10 mM Tris pH 7.5, 150 mM NaCl, 3.4 mM EDTA, 0.001% NP-40, 30 C
# reported conditions: tags: His6 N-terminal (pET28a); label: 5' 32P
The full ranking holds about 16,000 sequences; the median of “ka relative to ugcaugu” is about 0.096, and the highest 2% start at about 0.35. The list comes from a sample in which the highest values are over-represented; it also holds close analogues and randomly drawn sequences.
Some binders, each annotated with its measured binding signal.

- binder: "AAGUGAG (DNA:RNA) RNA: GGGAGACCGGAAUUCAGAUUGUCCAAGUGAGUUAAAUCCCGUCGUAGCCACCA DNA 1: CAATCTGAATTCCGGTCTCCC DNA 2: TGGTGGCTACGACGGGATT"
  binding signal: "0.137 KA relative to UGCAUGU"
- binder: "ACGAACU (DNA:RNA) RNA: GGGAGACCGGAAUUCAGAUUGUCCACGAACUUUAAAUCCCGUCGUAGCCACCA DNA 1: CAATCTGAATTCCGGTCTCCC DNA 2: TGGTGGCTACGACGGGATT"
  binding signal: "0.0682 KA relative to UGCAUGU"
- binder: "GACCGCG (DNA:RNA) RNA: GGGAGACCGGAAUUCAGAUUGUCCGACCGCGUUAAAUCCCGUCGUAGCCACCA DNA 1: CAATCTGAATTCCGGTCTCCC DNA 2: TGGTGGCTACGACGGGATT"
  binding signal: "0.101 KA relative to UGCAUGU"
- binder: "GUAUUUG (DNA:RNA) RNA: GGGAGACCGGAAUUCAGAUUGUCCGUAUUUGUUAAAUCCCGUCGUAGCCACCA DNA 1: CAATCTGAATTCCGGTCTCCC DNA 2: TGGTGGCTACGACGGGATT"
  binding signal: "0.17 KA relative to UGCAUGU"
